methodNotes: growth inhibition of non-replicating M. tuberculosis (AID 488890);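 further: plate controls were DMSO cells for no effect and high antibiotic wells for full effect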
assayConditions: Mycobacterium tuberculosis non-replicating, at 25 µM, stronger effect = higher value
Among all 320,000 compounds or so, about 1,300 (0.41%) were called active. Not shown: some 3% with an inconclusive outcome. A selection follows. Results with a measured potency or affinity are listed apart.
This listing pairs compounds with measured inhibition.
Use % as the unit, but write only the number.

Q: What measured inhibition goes with CN(CC(=O)Nc1ccc(F)c(F)c1)S(=O)(=O)c1cccc2cccnc12 ?
Ans: 0.37

Q: Same question, CC1c2[nH]c3ccccc3c2C[C@H]2C(=O)N(CCCN(C)C)CC(=O)N12 (some centres undefined) this time
Ans: -5.98

Q: Same question, CC(C)(C)c1cc(C(=S)N2CCN(CCO)CC2)cc(C(C)(C)C)c1O this time
Ans: 19.5

Q: Same question, CC1=NN(Cc2cc(C(C)(C)C)c(O)c(C(C)(C)C)c2)C(=O)C1 this time
Ans: -2.66

Q: Same question, CCC/C(=N/NC(=O)c1csc(C)c1C)c1ccc(Cl)s1 this time
Ans: 0.55

Q: Same question, COc1ccc(Cc2nc3ccc(C(=O)N4C[C@@H](C)O[C@@H](C)C4)cc3o2)cc1OC this time
Ans: 17.8

---

methodNotes: growth inhibition of non-replicating M. tuberculosis (AID 488890);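 further: plate controls were DMSO cells for no effect and high antibiotic wells for full effect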
assayConditions: Mycobacterium tuberculosis non-replicating, at 25 µM, stronger effect = higher value
Among all 320,000 compounds or so, about 1,300 (0.41%) were called active. About 3% were inconclusive and are not listed. Not all results are given here. Potency and affinity values are given separately.
This listing pairs molecules with measured inhibition.
Use % as the unit, but write only the number.

Field: example entries. Status: answers known.
[[record]]
molecule = "O=C(Nc1ncc2c(n1)-c1ccccc1OC2)c1ccc(Cl)cc1"
observable = "inhibition"
measurement = 75.5

[[record]]
molecule = "O=C(c1ccc(Br)s1)N1CCCC1"
observable = "inhibition"
measurement = 46.3

[[record]]
molecule = "CC(=O)OCCCNc1cc(Sc2nc3ccccc3s2)c2nonc2c1[N+](=O)[O-]"
observable = "inhibition"
measurement = 7.19

[[record]]
molecule = "CC(C)C[C@H]1CN=C(Nc2ccccc2)N1CCC1CCCCC1"
observable = "inhibition"
measurement = 25.8

[[record]]
molecule = "CCOc1ccc(C(C(=O)NCC2CCCO2)N(C(=O)c2snc(C(N)=O)c2N)c2cccc(F)c2)cc1 (centres undefined)"
observable = "inhibition"
measurement = 3.71


Q: What measured inhibition goes with CN(C)C1=NC[C@H](Cc2ccccc2)N1CCCC1CCCC1 ?
Ans: 77

Q: Same question, Cc1nnc(Sc2c(-c3ccccc3)c3ccc(Cl)cc3[nH]c2=O)s1 this time
Ans: 31.4

Q: Same question, Cn1ccnc1Sc1cc(NCCCO)c([N+](=O)[O-])c2nonc12 this time
Ans: 77.2

Q: Same question, CC(C)C[C@H]1CN=C(Nc2ccccc2)N1CCC1CCCC1 this time
Ans: 65.2

Q: Same question, CC(=O)OCCNc1cc(SC(C)C)c2nonc2c1[N+](=O)[O-] this time
Ans: 65.7

Q: Same question, CCOC(=O)c1c(CC(C)C)csc1/N=C/C1C(=O)CC(C)(C)CC1=O this time
Ans: -10.2

Q: Same question, C=CCn1c(CCC)nc2ccccc21 this time
Ans: 59.2

Q: Same question, O=C(c1ccc(Cl)s1)N1CCCC1 this time
Ans: 31

Q: Same question, O=[N+]([O-])c1c(NCCCO)cc(SCc2ccco2)c2nonc12 this time
Ans: 70.1

Q: Same question, CCc1ccc(CNC(=O)CN2C(=O)COc3ccccc32)cc1 this time
Ans: 14.8

Q: Same question, COc1ccc(/C=N/NC(=O)c2ccn[nH]2)cc1Cn1cc([N+](=O)[O-])cn1 this time
Ans: -4.11

Q: Same question, CCCC1CC(c2csc(N)n2)CCO1 (centres undefined) this time
Ans: -0.79
